assay.system: GST-LIMK2 PDZ domain fusion protein (human LIM domain kinase 2 AA185-275; PDZ domain 1 of 1) (human, UniProt P08515 1-218 = GST)
Sequence (P08515 1-218, tags or fused parts left off): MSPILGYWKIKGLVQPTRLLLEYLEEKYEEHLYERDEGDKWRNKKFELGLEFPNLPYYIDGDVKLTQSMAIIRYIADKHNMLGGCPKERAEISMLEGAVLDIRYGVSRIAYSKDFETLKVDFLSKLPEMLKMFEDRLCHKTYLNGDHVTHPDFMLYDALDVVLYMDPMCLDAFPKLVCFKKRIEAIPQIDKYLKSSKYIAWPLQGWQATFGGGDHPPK
assay.notes: A/G assays
Ends that are not written are not given here. * marks the point of attachment. Biotin = O=C1N[C@H]2[C@H](CS[C@H]2CCCCC(=O)*)N1
quantity.name: binding result

[[record]]
binder = "Biotin-LERTSSVSPSTAEPELSIVF [CC CKR-3 C-terminal PL peptide AA43L, biotinylated]"
data_value = "no binding"

[[record]]
binder = "Biotin-PKQANGGAYQKPTKQEEFYA [CD138 (syndecan) C-terminal PL peptide AA18L, biotinylated]"
data_value = "no binding"

[[record]]
binder = "Biotin-TIYENLAPVTTFGKTIA [CD148 C-terminal PL peptide AA55L (ends KTIA), biotinylated]"
data_value = "no binding"

[[record]]
binder = "Biotin-TSGTGHNQTRALRASESGI [CD97 (CD55L) C-terminal PL peptide AA14L, biotinylated]"
data_value = "no binding"

[[record]]
binder = "Biotin-LNSCSNRRVYKKMPSIESDV [NMDA C-terminal PL peptide AA34.2L, biotinylated]"
data_value = "no binding"

[[record]]
binder = "Biotin-ENLAPVTTFGKTNGYIA [CD148 (DEP-1) C-terminal PL peptide AA19L (ends GYIA), biotinylated]"
data_value = "no binding"

[[record]]
binder = "Biotin-PYGTAMEKAQLKPPATSDA [CD49E (alpha-4) C-terminal PL peptide AA11L, biotinylated]"
data_value = "no binding"

[[record]]
binder = "Biotin-LERVSSTSPSTGEHELSAGF [CC CKR-1R C-terminal PL peptide AA41L, biotinylated]"
data_value = "no binding"

[[record]]
binder = "Biotin-ISKATPALPTVSISSSAEV (also called AA1L-R) [CLASP-1 C-terminal PL peptide AA1L, biotinylated]"
data_value = "no binding"

